Recorded cleaved RNA product abundance by entry
Test system: Bacillus subtilis
Assay: cleaved RNA product abundance (RNA/gDNA barcode ratio) relative to median wild-type variant (ratio to wild type); higher = more accumulation of the downstream cleavage product
Conditions: experiment (reporter, strain, medium): exp 2b: truncated aprE reporter, strain BJT200; cleavage site: cggR-gapA (positions -7 to +36 mutated)
Form: value (number only, do not type unit).

Check out these entries, answers already filled in.
ACAGACGAAGGAGCCGCAAAGAAGTTATTACGAGATGAATAATCCCTCAATATAAATATCTCTCACTTATTTAAA 0.104
ACAGACGAAGGAGCCGCAAAGAAGTTATTAAGGGATGAATGATCCCACAATATAAATATCTCTCACTTATTTAAA 0.121

Prompt line: Kindly indicate its recorded cleaved RNA product abundance. Item: ACAGACGAAGGAGCCGCAAAGAATTTATCAAGGGATGAATAATCCCTCAATATAAATATCTCTCACTTATTTAAA
Response line: 0.275

Prompt line: Kindly indicate its recorded cleaved RNA product abundance. Item: ACAGACGAAGGAGCCGCAAAGATGTTATTAAGGGATGAATACTCCCTCAATATAAATATCTCTCACTTATTTAAA
Response line: 0.648

Prompt line: Kindly indicate its recorded cleaved RNA product abundance. Item: ACAGACGAAGGAGCCGCAAAGAAGTTACTAAGGGATGAATAATCCCACAATATAAATATCTCTCACTTATTTAAA
Response line: 0.126

Prompt line: Kindly indicate its recorded cleaved RNA product abundance. Item: ACAGACGAAGGAGCCGCAAAGAAGTTATTAAGGGATGATTAATGCCTCAATATAAATATCTCTCACTTATTTAAA
Response line: 0.117

Prompt line: Kindly indicate its recorded cleaved RNA product abundance. Item: ACAGACGAAGGAGCCGCAGAGAAGTTATTAAGGGATGAATAATCCCTCAATATAAATATCTCTCACTTATTTAAA
Response line: 0.839

Prompt line: Kindly indicate its recorded cleaved RNA product abundance. Item: ACAGACGAAGGAGCCGCAAAGAAGATATTAAGGAATGAATAATCCCTCAATATAAATATCTCTCACTTATTTAAA
Response line: 0.12

Prompt line: Kindly indicate its recorded cleaved RNA product abundance. Item: ACAGACGAAGGAGCCGCAAAGAAGTTATTAAGAGATGAATAATCCCTCAATGTAAATATCTCTCACTTATTTAAA
Response line: 0.0969

Prompt line: Kindly indicate its recorded cleaved RNA product abundance. Item: ACAGACGAAGGAGCCGCAAAGAAGTTTTTAAGGGATGAATAATCACTCAATATAAATATCTCTCACTTATTTAAA
Response line: 0.125

Prompt line: Kindly indicate its recorded cleaved RNA product abundance. Item: ACAGACGAAGGAGCCGCAAAGAAGTTATTAAGGGATAAATAATCCCTCAATATAGATATCTCTCACTTATTTAAA
Response line: 0.638

Prompt line: Kindly indicate its recorded cleaved RNA product abundance. Item: ACAGACGAAGGAGCCGCAAAGAAGTTATTAAGGGATGAATAATCCATTAATATAAATATCTCTCACTTATTTAAA
Response line: 0.766

---

System: Bacillus subtilis
Test: cleaved RNA product abundance (RNA/gDNA barcode ratio) relative to median wild-type variant (ratio to wild type); higher = more accumulation of the downstream cleavage product
Conditions: experiment (reporter, strain, medium): exp 4a: truncated aprE reporter, strain BJT201 with 2% xylose (RNase J1 expressed); cleavage site: cggR-gapA (positions -7 to +36 mutated)
Recorded cleaved RNA product abundance by entry
Form: value (number only, do not type unit).

Check out these entries, answers already filled in.
ACAGACGAAGGAGCCGCAAAGAAGTTATTAGGGTATGAATAATCCCTCAATATAAATATCTCTCACTTATTTAAA 0.361
ACAGACGAAGGAGCCGCAAAGAAGTTATTAACGGATGAATAATCCCTCAAAATAAATATCTCTCACTTATTTAAA 0.158
ACAGACGAAGGAGCCGCAAAGAAGTTATTAAGAGATAAAAAATCCCTCAATATAAATATCTCTCACTTATTTAAA 0.139
ACAGACGAAGGAGCCGCAAAGAAGTTATTAAGGGACGAATAATCCCTCAAAATAAATATCTCTCACTTATTTAAA 0.346
ACAGACGAAGGAGCCGCAAAGAAGTTATTAAGGGATGAATAATCCCTCCATATAAATTTCTCTCACTTATTTAAA 0.23

Now turn to the next sequence.
Prompt line: Kindly indicate its recorded cleaved RNA product abundance. Item: ACAGACGAAGGAGCCGCAAAGAAGTAATAAAGGGATGAATAATCCCTCAATATAAATATCTCTCACTTATTTAAA
Response line: 0.205

---

Recorded cleaved RNA product abundance by entry
Test system: Bacillus subtilis
Experiment: cleaved RNA product abundance (RNA/gDNA barcode ratio) relative to median wild-type variant (ratio to wild type); higher = more accumulation of the downstream cleavage product
Conditions: experiment (reporter, strain, medium): exp 4a: truncated aprE reporter, strain BJT201 with 2% xylose (RNase J1 expressed); cleavage site: cggR-gapA (positions -7 to +36 mutated)

Check out these entries, answers already filled in.
ACAGACGAAGGAGCCGCAAAGAAGTTATTAAGGGATGAATAATACCTAAATATAAATATCTCTCACTTATTTAAA 0.132
ACAGACGAAGGAGCCGCAAAGAAGTGATTAAGGGACGAATAATCCCTCAATATAAATATCTCTCACTTATTTAAA 0.322
ACAGACGAAGGAGCCGCAAAGAAGTTATTAAGCCATGAATAATCCCTCAATATAAATATCTCTCACTTATTTAAA 0.106

Now turn to the next sequence.
Prompt line: Kindly indicate its recorded cleaved RNA product abundance. Item: ACAGACGAAGGAGCCGCAAAGAAGTTATTAAGGGATGACTAATACCTCAATATAAATATCTCTCACTTATTTAAA
Response line: 0.0872

---

Tested on: Bacillus subtilis
Test: cleaved RNA product abundance (RNA/gDNA barcode ratio) relative to median wild-type variant (ratio to wild type); higher = more accumulation of the downstream cleavage product
Settings: experiment (reporter, strain, medium): exp 8a: truncated aprE reporter, strain BJT201 with 2% xylose (RNase J1 expressed); cleavage site: glnRA (positions -5 to +31 mutated)
REPORTED METRIC: cleaved RNA product abundance

Check out these entries, answers already filled in.
CGACATGTCCCGCTTCTTTCATTAATCCGTTAGCAACTGTTTTGCTATATACAATAACCTTTTAAGAGGAGGAAT 0.855
CGACATGTCCCGCTTCTTTCATTACTCCGTTAGCAACTGTTTTGCTATATACATTTTCCTTTTAAGAGGAGGAAT 0.403
CGACATGTCCCGCTTCTTTCATTAATCCGTTAGAAACTGTTTTGCTATACACATTTACCTTTTAAGAGGAGGAAT 0.253
CGACATGTCCCGCTTCTTTCATTAATCCGTTAGCAAATGTTTTGCTACATACATTTACCTTTTAAGAGGAGGAAT 0.354
CGACATGTCCCGCTTCTTTCATTAATCCGTCAGCAACTGTTTTGCTATATACATTAACCTTTTAAGAGGAGGAAT 0.528

Now turn to the next sequence.
Prompt line: Kindly indicate its recorded cleaved RNA product abundance. Item: CGACATGTCCCGCTTCTTTCATTAATCCGTAAGCAACAGTTTTGCTATATACATTTACCTTTTAAGAGGAGGAAT
Response line: 0.348

---

Tested on: Bacillus subtilis
Assay: cleaved RNA product abundance (RNA/gDNA barcode ratio) relative to median wild-type variant (ratio to wild type); higher = more accumulation of the downstream cleavage product
Conditions: experiment (reporter, strain, medium): exp 4a: truncated aprE reporter, strain BJT201 with 2% xylose (RNase J1 expressed); cleavage site: cggR-gapA (positions -7 to +36 mutated)
REPORTED METRIC: cleaved RNA product abundance
Form: value (number only, do not type unit).

ACAGACGAAGGAGCCGCAAAGAAGTTATTAAGTGATGAATAATACCTCAATATAAATATCTCTCACTTATTTAAA 0.0926

Prompt line: Kindly indicate its recorded cleaved RNA product abundance. Item: ACAGACGAAGGAGCCGCAAAAACGTTATTAAGGGATGAATAATCCCTCAATATAAATATCTCTCACTTATTTAAA
Response line: 1.04

Prompt line: Kindly indicate its recorded cleaved RNA product abundance. Item: ACAGACGAAGGAGCCGCAAAGAAGTTATTAAGCTATGAATAATCCCTCAATATAAATATCTCTCACTTATTTAAA
Response line: 0.104

Prompt line: Kindly indicate its recorded cleaved RNA product abundance. Item: ACAGACGAAGGAGCCGCAAAGAAGTTATTAAGGGATGAATAATCCCTCAATATAGATATCTCTCACTTATTTAAA
Response line: 0.683

---

Recorded cleaved RNA product abundance by entry
System: Bacillus subtilis
Experiment: cleaved RNA product abundance (RNA/gDNA barcode ratio) relative to median wild-type variant (ratio to wild type); higher = more accumulation of the downstream cleavage product
Conditions: experiment (reporter, strain, medium): exp 4a: truncated aprE reporter, strain BJT201 with 2% xylose (RNase J1 expressed); cleavage site: cggR-gapA (positions -7 to +36 mutated)
Form: value (number only, do not type unit).

Check out these entries, answers already filled in.
ACAGACGAAGGAGCCGCAAAGAAGTCATTAAGAGATGAATAATCCCTCAATATAAATATCTCTCACTTATTTAAA 0.137
ACAGACGAAGGAGCCGCAAAGAAGTTATTAAGAGAGGAATAATCCCTCAATATAAATATCTCTCACTTATTTAAA 0.199
ACAGACGAAGGAGCCGCAAAGAAGTAATTAAGGGATGAATAATCTCTCAATATAAATATCTCTCACTTATTTAAA 0.244

Now turn to the next sequence.
Prompt line: Kindly indicate its recorded cleaved RNA product abundance. Item: ACAGACGAAGGAGCCGCTAAGAAGTTATTAAGGGATGAATAATACCTCAATATAAATATCTCTCACTTATTTAAA
Response line: 0.15
